Test system: E. coli cells
assay: Recovery of porphyrine bonded to E. coli cells after dark incubation and washing steps
Type: cell-based
condition.parameters: 1 μM porphyrine, 5 minutes, no washing
// label = Criterion met if recovery (nmol/mg protein) no washing is not less than 3 nmol/mg protein, otherwise Criterion not met

Worked cases, answers included:
• CCCCCCCCCC[n+]1ccc(-c2c3nc(c(-c4cc[n+](C)cc4)c4ccc([nH]4)c(-c4cc[n+](C)cc4)c4nc(c(-c5cc[n+](C)cc5)c5ccc2[nH]5)C=C4)C=C3)cc1 = Criterion met
• CCCCCCCCCCCCCC[n+]1ccc(-c2c3nc(c(-c4cc[n+](C)cc4)c4ccc([nH]4)c(-c4cc[n+](C)cc4)c4nc(c(-c5cc[n+](C)cc5)c5ccc2[nH]5)C=C4)C=C3)cc1 = Criterion met
• CCCCCCCCCCCCCCCCCCCCCC[n+]1ccc(-c2c3nc(c(-c4cc[n+](C)cc4)c4ccc([nH]4)c(-c4cc[n+](C)cc4)c4nc(c(-c5cc[n+](C)cc5)c5ccc2[nH]5)C=C4)C=C3)cc1 = Criterion met
• CCCCCC[n+]1ccc(-c2c3nc(c(-c4cc[n+](CCCCCC)cc4)c4ccc([nH]4)c(-c4cc[n+](CCCCCC)cc4)c4nc(c(-c5cc[n+](CCCCCC)cc5)c5ccc2[nH]5)C=C4)C=C3)cc1 = Criterion not met
• C[n+]1ccc(-c2c3nc(c(-c4cc[n+](C)cc4)c4ccc([nH]4)c(-c4cc[n+](Cc5ccccc5)cc4)c4nc(c(-c5cc[n+](C)cc5)c5ccc2[nH]5)C=C4)C=C3)cc1 = Criterion not met
• CCCCCCCCCCCCCCCCCC[n+]1ccc(-c2c3nc(c(-c4cc[n+](C)cc4)c4ccc([nH]4)c(-c4cc[n+](C)cc4)c4nc(c(-c5cc[n+](C)cc5)c5ccc2[nH]5)C=C4)C=C3)cc1 = Criterion met
• CCCCCC[n+]1ccc(-c2c3nc(c(-c4cc[n+](C)cc4)c4ccc([nH]4)c(-c4cc[n+](C)cc4)c4nc(c(-c5cc[n+](C)cc5)c5ccc2[nH]5)C=C4)C=C3)cc1 = Criterion not met

Please examine the following record next.
**Q:** Check the entry C[n+]1ccc(-c2c3nc(c(-c4cc[n+](C)cc4)c4ccc([nH]4)c(-c4cc[n+](C)cc4)c4nc(c(-c5cc[n+](C)cc5)c5ccc2[nH]5)C=C4)C=C3)cc1 : does recovery (nmol/mg protein) no washing equal or exceed 3 nmol/mg protein?
**A:** Criterion not met

###

Test system: S. aureus cells
assay: Inhibition of growth of S. aureus cells after 5-minute incubation in the dark (optical density at 650 nm)
Type: cell-based
condition.parameters: 1 μM porphyrine, growth at 37° C
measured.parameter: inhibition of growth (%) S. aureus
Write the answer as a number in %, unit excluded.

These solved cases illustrate the format of a correct answer.
- C[n+]1ccc(-c2c3nc(c(-c4cc[n+](C)cc4)c4ccc([nH]4)c(-c4cc[n+](C)cc4)c4nc(c(-c5cc[n+](C)cc5)c5ccc2[nH]5)C=C4)C=C3)cc1: 3.1
- C[n+]1ccc(-c2c3nc(c(-c4cc[n+](C)cc4)c4ccc([nH]4)c(-c4cc[n+](Cc5ccccc5)cc4)c4nc(c(-c5cc[n+](C)cc5)c5ccc2[nH]5)C=C4)C=C3)cc1: 1.6
- CCCCCC[n+]1ccc(-c2c3nc(c(-c4cc[n+](C)cc4)c4ccc([nH]4)c(-c4cc[n+](C)cc4)c4nc(c(-c5cc[n+](C)cc5)c5ccc2[nH]5)C=C4)C=C3)cc1: 5.1

Read the next record carefully.
**Q:** State its inhibition of growth (%) S. aureus for this compound: CCCCCCCCCCCCCC[n+]1ccc(-c2c3nc(c(-c4cc[n+](C)cc4)c4ccc([nH]4)c(-c4cc[n+](C)cc4)c4nc(c(-c5cc[n+](C)cc5)c5ccc2[nH]5)C=C4)C=C3)cc1
**A:** 69.1

###

System: E. coli cells
assay: Recovery of porphyrine bonded to E. coli cells after dark incubation and washing steps
Type: cell-based
condition.parameters: 1 μM porphyrine, 5 minutes, after 3 washing steps
Attribute: % bonded after 3 washing steps
Write the answer as a number in %, unit excluded.

- CCCCCC[n+]1ccc(-c2c3nc(c(-c4cc[n+](C)cc4)c4ccc([nH]4)c(-c4cc[n+](C)cc4)c4nc(c(-c5cc[n+](C)cc5)c5ccc2[nH]5)C=C4)C=C3)cc1: 24.7
- C[n+]1ccc(-c2c3nc(c(-c4cc[n+](C)cc4)c4ccc([nH]4)c(-c4cc[n+](C)cc4)c4nc(c(-c5cc[n+](C)cc5)c5ccc2[nH]5)C=C4)C=C3)cc1: 11.4

Read the next record carefully.
**Q:** State its % bonded after 3 washing steps for this compound: CCCCCCCCCCCCCCCCCC[n+]1ccc(-c2c3nc(c(-c4cc[n+](C)cc4)c4ccc([nH]4)c(-c4cc[n+](C)cc4)c4nc(c(-c5cc[n+](C)cc5)c5ccc2[nH]5)C=C4)C=C3)cc1
**A:** 60.5

###

Attribute: inhibition of growth (%) S. aureus
System: S. aureus cells
assay: Inhibition of growth of S. aureus cells after 5-minute incubation in the dark (optical density at 650 nm)
Format: cell-based
condition.parameters: 1 μM porphyrine, growth at 37° C
Write the answer as a number in %, unit excluded.

**Q:** State its inhibition of growth (%) S. aureus for this molecule: CCCCCCCCCC[n+]1ccc(-c2c3nc(c(-c4cc[n+](C)cc4)c4ccc([nH]4)c(-c4cc[n+](C)cc4)c4nc(c(-c5cc[n+](C)cc5)c5ccc2[nH]5)C=C4)C=C3)cc1
**A:** 27.8

**Q:** State its inhibition of growth (%) S. aureus for this molecule: CCCCCCCCCCCCCCCCCCCCCC[n+]1ccc(-c2c3nc(c(-c4cc[n+](C)cc4)c4ccc([nH]4)c(-c4cc[n+](C)cc4)c4nc(c(-c5cc[n+](C)cc5)c5ccc2[nH]5)C=C4)C=C3)cc1
**A:** 39.9

**Q:** State its inhibition of growth (%) S. aureus for this molecule: CCCCCCCCCCCCCCCCCC[n+]1ccc(-c2c3nc(c(-c4cc[n+](C)cc4)c4ccc([nH]4)c(-c4cc[n+](C)cc4)c4nc(c(-c5cc[n+](C)cc5)c5ccc2[nH]5)C=C4)C=C3)cc1
**A:** 39.8

###

Attribute: inhibition of growth (%) E. coli
Tested on: E. coli cells
assay: Inhibition of growth of E. coli cells after 5-minute incubation in the dark (optical density at 650 nm)
Format: cell-based
condition.parameters: 1 μM porphyrine, growth at 37° C

• C[n+]1ccc(-c2c3nc(c(-c4cc[n+](C)cc4)c4ccc([nH]4)c(-c4cc[n+](C)cc4)c4nc(c(-c5cc[n+](C)cc5)c5ccc2[nH]5)C=C4)C=C3)cc1 = 0.6%
• C[n+]1ccc(-c2c3nc(c(-c4cc[n+](C)cc4)c4ccc([nH]4)c(-c4cc[n+](Cc5ccccc5)cc4)c4nc(c(-c5cc[n+](C)cc5)c5ccc2[nH]5)C=C4)C=C3)cc1 = 0.1%

**Q:** State its inhibition of growth (%) E. coli for this molecule: CCCCCCCCCCCCCC[n+]1ccc(-c2c3nc(c(-c4cc[n+](C)cc4)c4ccc([nH]4)c(-c4cc[n+](C)cc4)c4nc(c(-c5cc[n+](C)cc5)c5ccc2[nH]5)C=C4)C=C3)cc1
**A:** 46.1%

###

System: E. coli cells
assay: Inhibition of growth of E. coli cells after 5-minute incubation in the dark (optical density at 650 nm)
Assay type: cell-based
condition.parameters: 1 μM porphyrine, growth at 37° C
measured.parameter: inhibition of growth (%) E. coli
Write the answer as a number in %, unit excluded.

- CCCCCCCCCCCCCCCCCCCCCC[n+]1ccc(-c2c3nc(c(-c4cc[n+](C)cc4)c4ccc([nH]4)c(-c4cc[n+](C)cc4)c4nc(c(-c5cc[n+](C)cc5)c5ccc2[nH]5)C=C4)C=C3)cc1 [mono-C22]: 19.1
- CCCCCC[n+]1ccc(-c2c3nc(c(-c4cc[n+](C)cc4)c4ccc([nH]4)c(-c4cc[n+](C)cc4)c4nc(c(-c5cc[n+](C)cc5)c5ccc2[nH]5)C=C4)C=C3)cc1 [mono-C6]: 0.5
- CCCCCCCCCC[n+]1ccc(-c2c3nc(c(-c4cc[n+](C)cc4)c4ccc([nH]4)c(-c4cc[n+](C)cc4)c4nc(c(-c5cc[n+](C)cc5)c5ccc2[nH]5)C=C4)C=C3)cc1 [mono-C10]: 4.6

Read the next record carefully.
**Q:** State its inhibition of growth (%) E. coli for this compound: CCCCCCCCCCCCCCCCCC[n+]1ccc(-c2c3nc(c(-c4cc[n+](C)cc4)c4ccc([nH]4)c(-c4cc[n+](C)cc4)c4nc(c(-c5cc[n+](C)cc5)c5ccc2[nH]5)C=C4)C=C3)cc1 [mono-C18]
**A:** 2.7

Recorded values, source patent US20030153546A1.
